Origin of the recorded values: PubChem BioAssay AID1259411

system: rodent carcinogenicity bioassays, tumor incidence; assay: CCRIS carcinogenicity studies; settings: Species: RAT; Strain/Sex: SPRAGUE-DAWLEY/FEMALE; Route: SUBCUTANEOUS; Dose: 0; 0.2 UMOL 3/WK FOR 20 DOSES (STUDY DURATION: 52 WK); Tumor Site: Type of Lesion: INJECTION SITE: SARCOMA
Activity calls are given as the source filed them. The rule behind the calls is not given here.
assay-endpoint: carcinogen call

>>> measured_value("O=S(=O)(O)OCc1c2ccccc2c2ccc3cccc4ccc1c2c43")
"active; positive"
>>> measured_value("OCc1c2ccccc2c2ccc3cccc4ccc1c2c43")
"active; positive"
>>> measured_value("Cc1c2ccccc2c(COS(=O)(=O)O)c2ccc3ccccc3c12")
"active; positive"
>>> measured_value("Cc1c2ccccc2c(CO)c2ccc3ccccc3c12")
"active; positive"

###

test system: rodent carcinogenicity bioassays, tumor incidence; assay: CCRIS carcinogenicity studies; conditions: Species: MOUSE; Strain/Sex: B6C3F1/MALE; Route: INTRAPERITONEAL; Dose: 0; 400 NMOL IN 35 µL DMSO ON DAYS 1 (1/7 TOTAL DOSE), 8 (2/7 TOTAL DOSE), AND 15 (4/7 TOTAL DOSE) AFTER BIRTH (STUDY DUR
Calls of active or inactive are those of the source. How the calls were made is not given here.
assay-endpoint: carcinogen call

Look over these answered cases.
>>> measured_value("O=[N+]([O-])c1cc2c3c(cccc3c1)-c1ccccc1-2")
"inactive; negative"
>>> measured_value("c1ccc2cc3c4ccccc4c4ccccc4c3cc2c1")
"inactive; negative"
>>> measured_value("O=[N+]([O-])c1ccc2ccc3cc4ccccc4c4ccc1c2c34")
"inactive; negative"
>>> measured_value("O=[N+]([O-])c1ccc2c3c(cccc13)-c1ccccc1-2")
"inactive; negative"

Name the recorded carcinogen call for O=[N+]([O-])c1ccc2ccc3cccc4c5ccccc5c1c2c34 .
inactive; negative

Name the recorded carcinogen call for c1ccc2c(c1)-c1cccc3cccc-2c13 .
inactive; negative

Name the recorded carcinogen call for O=[N+]([O-])c1ccc2ccc3c4ccccc4cc4ccc1c2c43 .
inactive; negative

Name the recorded carcinogen call for O=[N+]([O-])c1c2ccccc2cc2c3ccccc3c3ccccc3c12 .
inactive; negative

Name the recorded carcinogen call for O=[N+]([O-])c1ccc2c3ccccc3c3cccc4ccc1c2c43 .
inactive; negative

###

tested on: rodent carcinogenicity bioassays, tumor incidence; assay: CCRIS carcinogenicity studies; conditions: Species: MOUSE; Route: DERMAL; Tumor Site: Type of Lesion: INTEGUMENTARY SYSTEM (SKIN)
Activity calls are given as the source filed them. How the calls were made is not given here.
assay-endpoint: carcinogen call

>>> measured_value("C1CC2OC2CC1C1CO1 (stereo unspecified)")
"active; positive"
>>> measured_value("ClCC1CO1 (stereo unspecified)")
"active; positive"
>>> measured_value("c1ccc2c(c1)ccc1c3ccccc3ccc21")
"active; positive"
>>> measured_value("CC1CC2OC2CC1COC(=O)C1CC2OC2CC1C (stereo unspecified)")
"active; positive"

Name the recorded carcinogen call for c1cc2ccc3cc4cccc5ccc6cc(c1)c2c3c6c54 .
active; positive

Name the recorded carcinogen call for C1OC1C1CO1 (stereo unspecified) .
active; positive

###

system: rodent carcinogenicity bioassays, tumor incidence; assay: CCRIS carcinogenicity studies; settings: Species: HAMSTER; Strain/Sex: SYRIAN/MALE; Route: SUBCUTANEOUS IMPLANT; Dose: 0; 20 MG IN PELLETS IMPLANTED EVERY 2.5 MO FOR 9 MO (STUDY DURATION: 9 MO); Tumor Site: Type of Lesion: KIDNEY: TUMOR
The source made the active and inactive calls. How the calls were made is not given here.
assay-endpoint: carcinogen call

>>> measured_value("CCC1C(c2ccc(O)cc2)=C(C)c2cc(O)ccc21 (stereo not drawn)")
"active; positive"
>>> measured_value("C[C@]12CC[C@@H]3c4ccc(O)cc4CC[C@H]3[C@@H]1CCC2=O")
"active; positive"
>>> measured_value("C#C[C@]1(O)CC[C@H]2[C@@H]3CCc4cc(O)ccc4[C@H]3[C@@H](OC)C[C@@]21C")
"active; positive"
